Test: A CellTox Green Cytotoxicity Assay to monitor cytotoxicity in HEK293 cells - 40 hour (AID 1224871); note: % is set by controls: 0 for no effect and ±100 for the full control effect; nearly all actives have a fitted effect of over 45% in size
Conditions: CellTox Green fluorescence; series mostly up to 76.8 µM
Results filed as inconclusive are left out. The source made the active and inactive calls. Calls come from the whole dose curve; as a rule, active = well fitted activation curve with a large enough effect in the repeat runs; inconclusive = weak or mixed curves; inactive = flat fitted curve, though single readings scatter.
# cytotoxicity increase listing for each entry below
MEASURED METRIC: cytotoxicity increase

In [3]: df
Out[3]:
                                  structure                  recorded_value
0  C[C@@H]1CN(c2c(F)c(F)c3c(=O)c(C(=O)O)cn(C4CC4)c3c2F)C[C@H](C)N1  -4.55% [at 15.8 µM] (inactive)
1  C[C@@H]1CN(c2c(F)c(N)c3c(=O)c(C(=O)O)cn(C4CC4)c3c2F)C[C@H](C)N1   6.32% [at 15.8 µM] (inactive)
2  O=c1oc2c(O)c(O)cc3c(=O)oc4c(O)c(O)cc1c4c23   16.8% [at 15.8 µM] (inactive)
3  O=C(O)CN(CCN(CC(=O)O)CC(=O)O)CCN(CC(=O)O)CC(=O)O   19.7% [at 15.8 µM] (inactive)
4            COC(=O)c1ccc2cc(C(=O)OC)ccc2c1   3.01% [at 15.8 µM] (inactive)

Value source: PubChem BioAssay (Tox21)
